Target sequence: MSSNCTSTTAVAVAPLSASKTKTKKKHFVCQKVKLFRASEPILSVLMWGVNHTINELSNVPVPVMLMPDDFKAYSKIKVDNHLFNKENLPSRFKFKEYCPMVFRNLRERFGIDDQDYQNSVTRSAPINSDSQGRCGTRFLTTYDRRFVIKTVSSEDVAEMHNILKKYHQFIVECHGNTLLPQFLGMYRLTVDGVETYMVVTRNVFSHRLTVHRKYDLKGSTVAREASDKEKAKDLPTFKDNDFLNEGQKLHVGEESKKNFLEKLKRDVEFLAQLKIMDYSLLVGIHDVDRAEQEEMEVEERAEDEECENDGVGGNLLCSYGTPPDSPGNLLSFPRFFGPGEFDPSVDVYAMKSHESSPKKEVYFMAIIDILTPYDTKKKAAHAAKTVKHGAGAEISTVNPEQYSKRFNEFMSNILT
Listing of entries alongside the reported IC50.

# annotated cases, reported IC50 shown
>  <Molecule>
CC1c2cc(Nc3cccnc3)ncc2-c2ccc(C(=O)N(C)C)cc2N1C (stereo not drawn) [Example 37]

>  <Reading>
100 to 1000 nM

$$$$
>  <Molecule>
COc1cccc(C(=O)Nc2cncc(Nc3cc4c(cn3)-c3ccc(N5CCCC5=O)cc3OC4C)c2)c1 (stereo not drawn) [Example 121]

>  <Reading>
1 to 10 nM

$$$$
>  <Molecule>
CC1Oc2cc(N3CCCC3=O)ccc2-c2cnc(Nc3cnc4c(c3)N(S(C)(=O)=O)CCO4)cc21 (stereo not drawn) [Example 49]

>  <Reading>
100 to 1000 nM

$$$$
>  <Molecule>
CC1(C)Oc2cc(N3CCCC3=O)c(F)cc2-c2cnc(Nc3cnc4c(c3)N3C(=O)CC[C@H]3CO4)cc21 [Example 148]

>  <Reading>
1 to 10 nM

$$$$
>  <Molecule>
O=C1CCCN1c1ccc2c(c1)OCc1cc(Nc3cnc4c(c3)OCCO4)ncc1-2 [Example 163]

>  <Reading>
10 to 100 nM

$$$$

Need IC50, item CC1Oc2cc(N3CCCC3=O)ccc2-c2cnc(Nc3cncc(NC(=O)c4ccccn4)c3)cc21 (stereo not drawn) [Example 112]
10 to 100 nM

Record request: IC50 value, item CC1Oc2cc(N3CCCC3=O)ccc2-c2cnc(Nc3cncc(NC(=O)c4cnn5ccccc45)c3)cc21 (stereo not drawn) [Example 144]
1 to 10 nM

###

Biological target: PIP4K 2A (Homo sapiens, UniProt P48426)
Assay: ADP-glo kinase assay PIP4K 2A
Format: biochemical
Design: 4 nM PIP4K2A (full length protein, SignalChem); purchased SignalChem
Settings: compounds listed under IC50 bin headings
Sequence (P48426 whole entry): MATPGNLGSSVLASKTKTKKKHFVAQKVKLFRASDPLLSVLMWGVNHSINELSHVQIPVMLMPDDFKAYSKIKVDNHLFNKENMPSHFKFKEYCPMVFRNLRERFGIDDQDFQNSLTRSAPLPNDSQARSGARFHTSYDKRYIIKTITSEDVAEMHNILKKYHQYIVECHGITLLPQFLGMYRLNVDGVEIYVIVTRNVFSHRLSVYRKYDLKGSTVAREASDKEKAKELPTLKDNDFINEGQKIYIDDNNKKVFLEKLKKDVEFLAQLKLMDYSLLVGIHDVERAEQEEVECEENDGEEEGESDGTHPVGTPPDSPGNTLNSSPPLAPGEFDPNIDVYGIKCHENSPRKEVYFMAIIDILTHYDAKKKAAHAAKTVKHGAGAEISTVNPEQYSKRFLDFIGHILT
Recorded Endpoint: IC50

>  <Compound>
CC1Oc2cc(N3CCCC3=O)ccc2-c2cnc(Nc3cnc4c(c3)OCCO4)cc21 (centres unmarked)

>  <Recorded Endpoint>
IC50

>  <Reading>
1 to 10 nM

$$$$
>  <Compound>
CC1Oc2cc(N3CCCC3=O)ccc2-c2cnc(Nc3cnc4scnc4c3)cc21 (centres unmarked)

>  <Recorded Endpoint>
IC50

>  <Reading>
10 to 100 nM

$$$$
>  <Compound>
CC1Oc2cc(N3CCCC3=O)ccc2-c2cnc(Nc3cncc(NC(=O)c4ccc(NC(=O)/C=C/CN(C)C)cc4)c3)cc21 (centres unmarked)

>  <Recorded Endpoint>
IC50

>  <Reading>
1 to 10 nM

$$$$
>  <Compound>
CC1Oc2cc(N3CCCC3=O)c(F)cc2-c2cnc(Nc3cccnc3)cc21 (centres unmarked)

>  <Recorded Endpoint>
IC50

>  <Reading>
10 to 100 nM

$$$$

Given the entry CC1(C)Oc2cc(N3CCCC3=O)c(F)cc2-c2cnc(Nc3cnc4c(c3)N3C(=O)CC[C@H]3CO4)cc21 , report its measured IC50.
≤ 1 nM

Any idea what its IC50 is? The compound is COc1ncc(Nc2cc3c(cn2)-c2ccc(N4CCCC4=O)cc2OC3C)cc1NC(C)=O (centres unmarked)
1 to 10 nM

What does the data say about its IC50? Entry: CN(C)C/C=C/C(=O)Nc1cccc(CCC(=O)Nc2cncc(Nc3cc4c(cn3)-c3ccc(N5CCCC5=O)cc3OC4(C)C)c2)c1
1 to 10 nM

For COCCC(=O)N1CCN(c2cncc(Nc3cc4c(cn3)-c3cc(F)c(N5CCCC5=O)cc3OC4C)c2)CC1 (centres unmarked) , what is its reported IC50?
1 to 10 nM

###

Target: PIP4K 2A (Homo sapiens, UniProt P48426)
Assay: Kinase Assay PIP4K2 A (PIP4KtypeIIA inhibition assay)
Type: biochemical
Design: made in house; host or cells: E. coli
Conditions: compounds listed under IC50 bin headings
Sequence (P48426 whole entry, species assumed): as the sequence (P48426 whole entry) above
pIC50: −log10 of the molar value.
Recorded Endpoint: pIC50

// worked examples, pIC50 included
>  <Compound>
CC1Oc2cc(N3CCCC3=O)ccc2-c2cnc(Nc3cnc4c(c3)N(C(=O)C3(O)CC3)CCO4)cc21 (stereo not shown)

>  <Reading>
≥ 9.00

$$$$
>  <Compound>
CC(=O)N1CCOc2ncc(Nc3cc4c(cn3)-c3ccc(N5CCCC5=O)cc3OC4C)cc21 (stereo not shown)

>  <Reading>
≥ 9.00

$$$$
>  <Compound>
CC1Oc2cc(N3CCCC3=O)ccc2-c2cnc(Nc3cnc4nccnc4c3)cc21 (stereo not shown)

>  <Reading>
8.00 to 9.00

$$$$

// switching to the query compound
Recorded pIC50 of CC1Oc2cc(N3CCCC3=O)ccc2-c2cnc(Nc3cncc(NC(=O)c4cccc(N)c4)c3)cc21 (stereo not shown) , please.
≥ 9.00

###

Entries below carry reported IC50 on PIP4K2B (Homo sapiens, UniProt P78356).

Consider the following illustrative entries.
>  <Molecule>
CC1Oc2cc(N3CCCC3=O)ccc2-c2cnc(Nc3cnc4c(c3)N3C(=O)OC[C@H]3CO4)cc21 (stereo partly drawn) [Example 158]

>  <Reading>
1 to 10 nM

$$$$
>  <Molecule>
CC1Oc2cc(N3CCCC3=O)ccc2-c2cnc(Nc3cncc(Nc4ccccn4)c3)cc21 (stereo not drawn) [Example 130]

>  <Reading>
10 to 100 nM

$$$$
>  <Molecule>
CC1(C)Oc2cc(N3CCCC3=O)ccc2-c2cnc(Nc3cnc4c(c3)N3C(=O)CC[C@H]3CO4)cc21 [Example 73]

>  <Reading>
1 to 10 nM

$$$$
>  <Molecule>
CC1Oc2cc(N3CCCC3=O)c(F)cc2-c2cnc(Nc3cnc4c(c3)N3C(=O)OC[C@H]3CO4)cc21 (stereo partly drawn) [Example 159]

>  <Reading>
1 to 10 nM

$$$$
>  <Molecule>
CC1Oc2cc(N3CCCC3=O)ccc2-c2cnc(Nc3cncc(NC(=O)CCC(=O)O)c3)cc21 (stereo not drawn) [Example 105]

>  <Reading>
10 to 100 nM

$$$$
>  <Molecule>
CC1Oc2cc(N3CCCC3=O)ccc2-c2cnc(Nc3cncc(NC(=O)C4Cc5ccccc5C4)c3)cc21 (stereo not drawn) [Example 138]

>  <Reading>
10 to 100 nM

$$$$
>  <Molecule>
CC1Oc2cc(N3CCCC3=O)ccc2-c2cnc(Nc3cncc(NC(=O)c4ccnc(N)c4)c3)cc21 (stereo not drawn) [Example 115]

>  <Reading>
1 to 10 nM

$$$$
>  <Molecule>
CC1(C)Oc2cc(N3CCCC3=O)c(F)cc2-c2cnc(Nc3cnc4c(c3)N3C(=O)CC[C@@H]3CO4)cc21 [Example 184]

>  <Reading>
1 to 10 nM

$$$$
>  <Molecule>
CC1Oc2cc(N3CCCC3=O)ccc2-c2cnc(Nc3cnc4c(c3)N3C(=O)CC[C@@H]3CO4)cc21 (stereo partly drawn) [Example 180]

>  <Reading>
1 to 10 nM

$$$$
>  <Molecule>
CC1Oc2cc(N3CCCC3=O)ccc2-c2cnc(Nc3cncc(N4CCN(C)C4=O)c3)cc21 (stereo not drawn) [Example 53]

>  <Reading>
10 to 100 nM

$$$$

Lab request: please report IC50 under test system PIP4K2B (Homo sapiens, UniProt P78356) for Cn1cnnc1-c1ccc2c(c1)OC(C)(C)c1cc(Nc3cnc4c(c3)N3C(=O)CC[C@H]3CO4)ncc1-2 [Example 211]
1 to 10 nM

// fetch PIP4K2B (Homo sapiens, UniProt P78356) IC50 for CC1(C)Oc2cc(N3CCCC3=O)c(F)cc2-c2cnc(Nc3cncc(N4CCNC4=O)c3)cc21 [Example 149]
10 to 100 nM

For the record COCCC(=O)N1CCN(c2cncc(Nc3cc4c(cn3)-c3ccc(N5CCCC5=O)cc3OC4C)c2)CC1 (stereo not drawn) [Example 169] , what value of IC50 is listed for PIP4K2B (Homo sapiens, UniProt P78356)?
10 to 100 nM

Can you look up IC50 on PIP4K2B (Homo sapiens, UniProt P78356) for CC1c2cc(Nc3cnc4c(c3)OCCO4)ncc2-c2ccc(N3CCCC3=O)cc2N1C (stereo not drawn) [Example 45] ?
100 to 1000 nM

Tell me reported IC50 for CC1Oc2cc(N3CCCC3=O)ccc2-c2cnc(Nc3cnc4ccn(S(C)(=O)=O)c4c3)cc21 (stereo not drawn) [Example 57] , tested with PIP4K2B (Homo sapiens, UniProt P78356).
10 to 100 nM
